Molecular target: His6-TEV-PDGFRβ (557-1016) (Homo sapiens (Human))
Sequence (P09619 whole entry, looked up): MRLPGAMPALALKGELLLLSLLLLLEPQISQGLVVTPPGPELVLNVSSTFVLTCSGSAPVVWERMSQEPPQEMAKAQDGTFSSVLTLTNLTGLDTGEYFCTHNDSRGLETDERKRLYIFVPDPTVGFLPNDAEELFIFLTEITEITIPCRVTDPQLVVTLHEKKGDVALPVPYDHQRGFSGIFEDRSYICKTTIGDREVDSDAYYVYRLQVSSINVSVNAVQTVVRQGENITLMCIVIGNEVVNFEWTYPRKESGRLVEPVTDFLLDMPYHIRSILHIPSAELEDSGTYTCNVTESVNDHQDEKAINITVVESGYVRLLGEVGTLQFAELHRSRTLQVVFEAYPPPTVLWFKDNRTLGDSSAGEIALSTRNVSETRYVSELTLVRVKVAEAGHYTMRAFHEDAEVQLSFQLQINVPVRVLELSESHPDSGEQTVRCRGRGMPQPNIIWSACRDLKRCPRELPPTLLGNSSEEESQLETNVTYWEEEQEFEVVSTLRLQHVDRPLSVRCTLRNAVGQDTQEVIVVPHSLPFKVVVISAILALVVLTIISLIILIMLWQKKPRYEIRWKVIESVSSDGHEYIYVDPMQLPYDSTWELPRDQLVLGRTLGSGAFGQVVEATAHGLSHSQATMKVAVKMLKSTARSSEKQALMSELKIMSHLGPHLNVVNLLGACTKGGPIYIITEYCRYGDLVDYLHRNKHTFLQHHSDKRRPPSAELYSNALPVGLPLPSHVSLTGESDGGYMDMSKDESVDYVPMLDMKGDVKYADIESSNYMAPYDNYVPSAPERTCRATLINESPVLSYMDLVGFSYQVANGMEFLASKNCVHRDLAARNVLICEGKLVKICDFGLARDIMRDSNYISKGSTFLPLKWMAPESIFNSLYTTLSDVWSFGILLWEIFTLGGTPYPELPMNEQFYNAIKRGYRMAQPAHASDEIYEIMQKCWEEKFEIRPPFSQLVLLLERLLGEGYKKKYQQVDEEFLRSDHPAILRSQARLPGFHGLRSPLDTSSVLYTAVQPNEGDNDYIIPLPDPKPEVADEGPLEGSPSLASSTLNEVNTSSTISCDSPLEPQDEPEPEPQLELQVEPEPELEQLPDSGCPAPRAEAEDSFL
Experiment: PDGFRβ HTRF Assay
Format: biochemical
Settings: 800 μM ATP, 0.5 μM TK-substrate biotin peptide, 30 min pre-incubation, 3 hours reaction; read-out: PDGFR HTRF IC50
READOUT_TYPE: pIC50
Numbers only, as −log10 of the molar value.

Cc1ncc(NC(=O)CN2CCCC2)cc1Nc1nn(C)c2nc(Nc3cnn(C)c3)ncc12 ... 9.62
Cc1ncc(C(=O)NCCN2CCCC2(C)C)cc1Nc1nn(C)c2nc(Nc3ccc(=O)[nH]c3)ncc12 ... 9.17
Cc1ncc(NC(=O)NCCN2CCCC2(C)C)cc1Nc1nn(C)c2nc(Nc3cncnc3)ncc12 ... 8.87

Below: the item to evaluate.
Recall and state the measured pIC50 for `Cc1ncc(C(=O)NCCN2CCCC2(C)C)cc1Nc1nn(C)c2nc(Nc3cccc(CC(=O)O)c3)ncc12` .
8.81

----------
Molecular target: His6-TEV-PDGFRβ (557-1016) (Homo sapiens (Human))
Assay: PDGFRβ HTRF Assay
Assay type: biochemical
Settings: 800 μM ATP, 0.5 μM TK-substrate biotin peptide, 30 min pre-incubation, 3 hours reaction; read-out: PDGFR HTRF IC50
READOUT_TYPE: pIC50
Answers are plain numbers, as −log10 of the molar value.

Some compounds with known pIC50 results, for comparison:
Cc1ncc(C(=O)NCCN2CCCOCC2)cc1Nc1nn(C)c2nc(Nc3cnn(C)c3)ncc12 ... 9.32
Cc1ncc(C(=O)NCCN2CCCC2(C)C)cc1Nc1nn(C)c2nc(Nc3ccnc(N)c3)ncc12 ... 9.44
Cn1cc(Nc2ncc3c(Nc4cc(C(=O)NCCN5CCCC5(C)C)ccc4F)nn(C)c3n2)cn1 ... 9.70

Recall and state the measured pIC50 for `Cc1ncc(C(=O)NCCN2CCCC[C@@H]2C)cc1Nc1nn(C)c2nc(Nc3cncnc3)ncc12` .
9.19

----------
Molecular target: Tb-labeled inactive PDGFRβ (Homo sapiens (Human))
Sequence (P09619 whole entry, looked up): as the sequence (P09619 whole entry, looked up) above
Assay: biochemical
Type: binding
Settings: read-out: PDGFR Lantha IC50
I'd appreciate it if you could supply pIC50 values for the items below.
One number for each entry, as −log10 of the molar value.

Some molecules with known pIC50 results, for comparison:
Cc1ncc(C(=O)NCCN2CCCC2(C)C)cc1Nc1nn(C)c2nc(Nc3ccnc(N4CCN(CCO)CC4)c3)ncc12 [Example 103] ... 8.32
COCCn1cc(Nc2ncc3c(Nc4cc(NC(=O)CN5CCC[C@@H]5C)cnc4C)nn(C)c3n2)cn1 [Example 128] ... 8.44
Cc1ncc(NC(=O)CN2CCC[C@@H]2C)cc1Nc1nn(C)c2nc(Nc3cn(C)cn3)ncc12 [Example 142] ... 6.97

Below: the item to evaluate.
Recall and state the measured pIC50 for Cc1ncc(C(=O)NCCN2CCCC2(C)C)cc1Nc1nn(C)c2nc(Nc3ccnn3C)ncc12 [Example 157] .
7.48

----------
Target: PDGFRβ (Rattus norvegicus (Rat))
Sequence (Q05030 whole entry, looked up): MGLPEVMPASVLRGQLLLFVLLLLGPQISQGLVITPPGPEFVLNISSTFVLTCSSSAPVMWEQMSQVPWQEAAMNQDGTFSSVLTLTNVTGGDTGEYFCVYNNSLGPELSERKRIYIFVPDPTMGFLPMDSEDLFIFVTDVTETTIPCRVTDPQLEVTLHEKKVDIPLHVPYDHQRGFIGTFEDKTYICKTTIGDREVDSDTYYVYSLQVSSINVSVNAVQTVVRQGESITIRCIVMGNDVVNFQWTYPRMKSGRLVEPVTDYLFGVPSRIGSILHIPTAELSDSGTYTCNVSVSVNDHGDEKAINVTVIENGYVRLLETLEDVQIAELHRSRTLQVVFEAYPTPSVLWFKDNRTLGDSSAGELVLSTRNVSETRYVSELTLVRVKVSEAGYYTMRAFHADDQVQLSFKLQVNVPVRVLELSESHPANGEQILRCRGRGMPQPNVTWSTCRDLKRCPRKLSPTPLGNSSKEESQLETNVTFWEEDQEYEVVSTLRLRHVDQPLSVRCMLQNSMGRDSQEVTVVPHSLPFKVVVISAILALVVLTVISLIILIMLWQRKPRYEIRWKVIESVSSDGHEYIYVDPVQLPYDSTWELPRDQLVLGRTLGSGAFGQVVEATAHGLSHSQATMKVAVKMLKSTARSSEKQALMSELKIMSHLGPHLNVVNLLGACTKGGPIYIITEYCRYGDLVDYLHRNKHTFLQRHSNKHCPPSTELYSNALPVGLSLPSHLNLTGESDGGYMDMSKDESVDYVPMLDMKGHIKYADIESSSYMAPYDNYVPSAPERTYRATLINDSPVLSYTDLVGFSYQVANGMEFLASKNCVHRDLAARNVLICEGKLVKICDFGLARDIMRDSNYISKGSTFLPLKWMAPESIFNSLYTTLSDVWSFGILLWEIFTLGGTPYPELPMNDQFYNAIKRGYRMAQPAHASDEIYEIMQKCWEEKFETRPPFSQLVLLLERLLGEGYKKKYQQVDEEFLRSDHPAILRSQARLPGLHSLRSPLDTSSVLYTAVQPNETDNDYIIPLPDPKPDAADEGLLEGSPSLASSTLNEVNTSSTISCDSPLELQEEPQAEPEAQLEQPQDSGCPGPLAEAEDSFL
Assay: PDGFRβ Cellular Assay (PDGFRb P-Y751 HTRF, PDGF-BB stimulated A10 cells)
Type: cell-based
Conditions: A10 cells, 3 hours compound, 15 ng/mL PDGFbb for 10 minutes; read-out: PDGFR Cellular IC50
Categories are defined by ranges of IC50, namely LOW (below 10 nM), MEDIUM (10 nM to below 100 nM), HIGH (100 nM or more)

# example entries with known answers
Cc1ncc(C(=O)NCCC2CCCCC2)cc1Nc1nn(C)c2nc(NCCC3CCCCC3)ncc12 ... HIGH
Cc1cc(C(=O)NCCN2CCC[C@@H]2C)sc1Nc1nn(C)c2nc(Nc3cnn(C)c3)ncc12 ... MEDIUM
Cn1cc(Nc2ncc3c(Nc4cc(C(=O)NCCN5CCC(F)(F)CC5)ccc4F)nn(C)c3n2)cn1 ... LOW
Cc1ncc(NC(=O)CN2CC(C)(C)C2)cc1Nc1nn(C)c2nc(Nc3cnn(C)c3)ncc12 ... LOW
Cc1ncc(C(=O)NCCC2CCCCC2)cc1Nc1nn(C)c2nc(Nc3ccnc(N4CCN(CCO)CC4)c3)ncc12 ... HIGH

Kindly identify the class of `Cc1ncc(C(=O)NCCN2CC[C@@H](C)C2)cc1Nc1nn(C)c2nc(Nc3cncnc3)ncc12` .
HIGH

Kindly identify the class of `Cc1ncc(C(=O)NCCN2CCC[C@@H]2C)cc1Nc1nn(C)c2nc(Nc3cncnc3)ncc12` .
HIGH

Kindly identify the class of `Cc1ncc(C(=O)NCCC2CCCCC2)cc1Nc1nn(C)c2nc(Nc3cncc(CC(=O)O)c3)ncc12` .
HIGH

Kindly identify the class of `COCCn1cc(Nc2ncc3c(Nc4cc(NC(=O)CN5CC6CCC5CC6)cnc4C)nn(C)c3n2)cn1` .
LOW

Kindly identify the class of `Cc1ncc(C(=O)NCCN2CCC(C)(C)C2)cc1Nc1nn(C)c2nc(Nc3cncnc3)ncc12` .
MEDIUM

Kindly identify the class of `Cc1ncc(C(=O)NCCN2CCCC2(C)C)cc1Nc1nn(C)c2nc(Nc3ccc(N)nc3)ncc12` .
HIGH

Kindly identify the class of `Cc1ncc(C(=O)NCCN2CCC3(CCC3)CC2)cc1Nc1nn(C)c2nc(Nc3cncnc3)ncc12` .
MEDIUM

Kindly identify the class of `Cc1ncc(C(=O)NCCN2CCCC2(C)C)cc1Nc1nn(C)c2cc(Nc3cnn(C)c3)ncc12` .
MEDIUM

Kindly identify the class of `COCCn1cc(Nc2ncc3c(Nc4cc(NC(=O)CN5CCC6(CC6)C5)cnc4C)nn(C)c3n2)cn1` .
LOW

Kindly identify the class of `CC(=O)Nc1cccc(Nc2ncc3c(Nc4cc(C(=O)NCCN5CCCC5(C)C)cnc4C)nn(C)c3n2)c1` .
HIGH
